# experimental-details: Stability in Non human primate Hepatocyte assessed as half life
# Assay type: ADME, cell-based
# condition-info: hepatocytes
recorded-endpoint: half-life

-- ask Need half-life of COC(=O)N1CC[C@H]2CC[C@@H](C(=O)N[C@@H](CCC(N)=O)C(=O)N[C@@H](Cc3ccc(F)c(F)c3)C(=O)N3CCC(CCC#Cc4cccc5c4CN(C4CCC(=O)NC4=O)C5=O)CC3)N2C(=O)[C@@H](NC(=O)c2cc3cc(C(F)(F)P(=O)(O)O)ccc3s2)C1 (stereo partly specified) , thanks.
-- reply > 2 h

====

# experimental-details: Drug concentration in female CB17 SCID mouse plasma at 5 mg/kg, iv measured at 48 hrs by LC-MS/MS analysis
# Format: ADME, organism-based
recorded-endpoint: concentration at 48 h
Reply with the number and its unit after it.

-- ask Need concentration at 48 h of COC(=O)N1CC[C@H]2CC[C@@H](C(=O)N[C@@H](CCC(N)=O)C(=O)N[C@@H](Cc3ccc(F)c(F)c3)C(=O)N3CCC(CCC#Cc4cccc5c4CN(C4CCC(=O)NC4=O)C5=O)CC3)N2C(=O)[C@@H](NC(=O)c2cc3cc(C(F)(F)P(=O)(O)O)ccc3s2)C1 (stereo partly specified) , thanks.
-- reply 12400 ng/mL

====

# experimental-details: Drug concentration in female CB17 SCID mouse tumor at 5 mg/kg, iv measured at 72 hrs by LC-MS/MS analysis
# Format: ADME, organism-based, Neoplasm
# condition-info: read-out: Ct
recorded-endpoint: concentration at 72 h (ng/g)
Quick note: give the figure in ng/g, leave out the unit.

-- ask Need concentration at 72 h of COC(=O)N1CC[C@H]2CC[C@@H](C(=O)N[C@@H](CCC(N)=O)C(=O)N[C@@H](Cc3ccc(F)c(F)c3)C(=O)N3CCC(CCC#Cc4cccc5c4CN(C4CCC(=O)NC4=O)C5=O)CC3)N2C(=O)[C@@H](NC(=O)c2cc3cc(C(F)(F)P(=O)(O)O)ccc3s2)C1 (stereo partly specified) , thanks.
-- reply 925

====

# measurement-target: hERG (KCNH2) (Homo sapiens, UniProt Q12809)
# Sequence (Q12809 whole entry): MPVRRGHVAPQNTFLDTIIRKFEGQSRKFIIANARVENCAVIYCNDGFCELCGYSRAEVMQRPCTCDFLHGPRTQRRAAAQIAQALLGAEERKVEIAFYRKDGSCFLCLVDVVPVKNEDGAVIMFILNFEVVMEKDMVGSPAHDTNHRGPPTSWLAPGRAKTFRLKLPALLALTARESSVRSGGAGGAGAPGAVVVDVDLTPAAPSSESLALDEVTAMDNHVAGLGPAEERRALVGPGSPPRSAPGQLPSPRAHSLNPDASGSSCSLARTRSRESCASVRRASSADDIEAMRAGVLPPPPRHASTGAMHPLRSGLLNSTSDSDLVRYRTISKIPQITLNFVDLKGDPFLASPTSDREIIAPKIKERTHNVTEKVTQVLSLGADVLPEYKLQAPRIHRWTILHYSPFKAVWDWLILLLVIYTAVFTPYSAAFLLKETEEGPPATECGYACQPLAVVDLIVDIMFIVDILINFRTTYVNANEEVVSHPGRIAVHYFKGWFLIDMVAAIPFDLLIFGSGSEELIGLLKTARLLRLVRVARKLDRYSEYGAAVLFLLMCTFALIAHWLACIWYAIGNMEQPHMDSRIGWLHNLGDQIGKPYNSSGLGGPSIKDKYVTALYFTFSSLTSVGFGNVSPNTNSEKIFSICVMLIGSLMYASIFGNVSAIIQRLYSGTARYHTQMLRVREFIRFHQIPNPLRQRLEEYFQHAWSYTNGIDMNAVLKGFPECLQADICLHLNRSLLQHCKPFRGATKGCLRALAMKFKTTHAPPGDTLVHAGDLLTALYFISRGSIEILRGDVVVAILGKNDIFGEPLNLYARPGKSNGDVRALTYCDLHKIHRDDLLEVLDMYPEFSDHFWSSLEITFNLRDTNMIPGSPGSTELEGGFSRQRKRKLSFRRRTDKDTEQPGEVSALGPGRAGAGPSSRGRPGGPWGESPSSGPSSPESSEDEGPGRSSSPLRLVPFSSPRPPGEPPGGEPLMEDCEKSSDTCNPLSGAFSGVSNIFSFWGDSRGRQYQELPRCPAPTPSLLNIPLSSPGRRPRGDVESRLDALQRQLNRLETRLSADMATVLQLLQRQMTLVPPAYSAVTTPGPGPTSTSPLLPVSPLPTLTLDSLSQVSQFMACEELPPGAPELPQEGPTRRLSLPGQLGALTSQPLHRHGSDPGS
# experimental-details: Inhibition of hERG at 3 uM relative to control
# Type: toxicity
recorded-endpoint: inhibition at 3 µM (%)
Quick note: give the figure in %, leave out the unit.

-- ask Need inhibition at 3 µM of COC(=O)N1CC[C@H]2CC[C@@H](C(=O)N[C@@H](CCC(N)=O)C(=O)N[C@@H](Cc3ccc(F)c(F)c3)C(=O)N3CCC(CCC#Cc4cccc5c4CN(C4CCC(=O)NC4=O)C5=O)CC3)N2C(=O)[C@@H](NC(=O)c2cc3cc(C(F)(F)P(=O)(O)O)ccc3s2)C1 (stereo partly specified) , thanks.
-- reply 1.3

====

# experimental-details: Drug concentration in female CB17 SCID mouse spleen at 5 mg/kg, iv measured at 24 hrs by LC-MS/MS analysis
# Type: ADME, organism-based
# condition-info: read-out: Ct
recorded-endpoint: concentration at 24 h (ng/g)
Quick note: give the figure in ng/g, leave out the unit.

-- ask Need concentration at 24 h of COC(=O)N1CC[C@H]2CC[C@@H](C(=O)N[C@@H](CCC(N)=O)C(=O)N[C@@H](Cc3ccc(F)c(F)c3)C(=O)N3CCC(CCC#Cc4cccc5c4CN(C4CCC(=O)NC4=O)C5=O)CC3)N2C(=O)[C@@H](NC(=O)c2cc3cc(C(F)(F)P(=O)(O)O)ccc3s2)C1 (stereo partly specified) , thanks.
-- reply 868

====

# experimental-details: AUC (0 to t) in Beagle dog at 1 mg/kg, iv
# Format: ADME, organism-based, Canis lupus familiaris
# condition-info: in vivo
Quick reference: AUC(0-t) of the listed items.
Quick note: give the figure in ng·h/mL, leave out the unit.

>  <molecule>
CC(=O)N1CC[C@H]2CC[C@@H](C(=O)N[C@@H](CCC(N)=O)C(=O)N[C@@H](Cc3ccc(F)c(F)c3)C(=O)N3CCC(CCC#Cc4cccc5c4CN(C4CCC(=O)NC4=O)C5=O)CC3)N2C(=O)[C@@H](NC(=O)c2cc3cc(C(F)(F)P(=O)(O)O)ccc3s2)C1 (some centres not stated)

>  <AUC(0-t) (ng·h/mL)>
15000

$$$$

Let us examine a further case.
-- ask Need AUC(0-t) of COC(=O)N1CC[C@H]2CC[C@@H](C(=O)N[C@@H](CCC(N)=O)C(=O)N[C@@H](Cc3ccc(F)c(F)c3)C(=O)N3CCC(CCC#Cc4cccc5c4CN(C4CCC(=O)NC4=O)C5=O)CC3)N2C(=O)[C@@H](NC(=O)c2cc3cc(C(F)(F)P(=O)(O)O)ccc3s2)C1 (some centres not stated) , thanks.
-- reply 10700

====

# experimental-details: Drug concentration in female CB17 SCID mouse spleen at 5 mg/kg, iv measured at 3 hrs by LC-MS/MS analysis
# Format: ADME, organism-based
# condition-info: read-out: Ct
recorded-endpoint: concentration at 3 h (ng/g)
Quick note: give the figure in ng/g, leave out the unit.

-- ask Need concentration at 3 h of COC(=O)N1CC[C@H]2CC[C@@H](C(=O)N[C@@H](CCC(N)=O)C(=O)N[C@@H](Cc3ccc(F)c(F)c3)C(=O)N3CCC(CCC#Cc4cccc5c4CN(C4CCC(=O)NC4=O)C5=O)CC3)N2C(=O)[C@@H](NC(=O)c2cc3cc(C(F)(F)P(=O)(O)O)ccc3s2)C1 (stereo partly specified) , thanks.
-- reply 1920

====

# experimental-details: Drug concentration in female CB17 SCID mouse tumor at 5 mg/kg, iv measured at 3 hrs by LC-MS/MS analysis
# Format: ADME, organism-based, Neoplasm
# condition-info: read-out: Ct
recorded-endpoint: concentration at 3 h (ng/g)
Quick note: give the figure in ng/g, leave out the unit.

-- ask Need concentration at 3 h of COC(=O)N1CC[C@H]2CC[C@@H](C(=O)N[C@@H](CCC(N)=O)C(=O)N[C@@H](Cc3ccc(F)c(F)c3)C(=O)N3CCC(CCC#Cc4cccc5c4CN(C4CCC(=O)NC4=O)C5=O)CC3)N2C(=O)[C@@H](NC(=O)c2cc3cc(C(F)(F)P(=O)(O)O)ccc3s2)C1 (stereo partly specified) , thanks.
-- reply 2830

====

# experimental-details: Drug concentration in female CB17 SCID mouse liver at 5 mg/kg, iv measured at 6 hrs by LC-MS/MS analysis
# Format: ADME, organism-based
# condition-info: read-out: Ct
recorded-endpoint: concentration at 6 h (ng/g)
Quick note: give the figure in ng/g, leave out the unit.

-- ask Need concentration at 6 h of COC(=O)N1CC[C@H]2CC[C@@H](C(=O)N[C@@H](CCC(N)=O)C(=O)N[C@@H](Cc3ccc(F)c(F)c3)C(=O)N3CCC(CCC#Cc4cccc5c4CN(C4CCC(=O)NC4=O)C5=O)CC3)N2C(=O)[C@@H](NC(=O)c2cc3cc(C(F)(F)P(=O)(O)O)ccc3s2)C1 (stereo partly specified) , thanks.
-- reply 3570

====

# experimental-details: Drug concentration in female CB17 SCID mouse liver at 5 mg/kg, iv measured at 72 hrs by LC-MS/MS analysis
# Assay type: ADME, organism-based
# condition-info: read-out: Ct
recorded-endpoint: concentration at 72 h (ng/g)
Quick note: give the figure in ng/g, leave out the unit.

-- ask Need concentration at 72 h of COC(=O)N1CC[C@H]2CC[C@@H](C(=O)N[C@@H](CCC(N)=O)C(=O)N[C@@H](Cc3ccc(F)c(F)c3)C(=O)N3CCC(CCC#Cc4cccc5c4CN(C4CCC(=O)NC4=O)C5=O)CC3)N2C(=O)[C@@H](NC(=O)c2cc3cc(C(F)(F)P(=O)(O)O)ccc3s2)C1 (stereo partly specified) , thanks.
-- reply 598

====

# experimental-details: Clearance in Beagle dog at 1 mg/kg, iv
# Assay type: ADME, organism-based, Canis lupus familiaris
# condition-info: in vivo
recorded-endpoint: clearance (mL/min/kg)
Quick note: give the figure in mL/min/kg, leave out the unit.

-- ask Need clearance of CC(=O)N1CC[C@H]2CC[C@@H](C(=O)N[C@@H](CCC(N)=O)C(=O)N[C@@H](Cc3ccc(F)c(F)c3)C(=O)N3CCC(CCC#Cc4cccc5c4CN(C4CCC(=O)NC4=O)C5=O)CC3)N2C(=O)[C@@H](NC(=O)c2cc3cc(C(F)(F)P(=O)(O)O)ccc3s2)C1 (stereo partly specified) , thanks.
-- reply 1

====

# experimental-details: Drug concentration in female CB17 SCID mouse plasma at 5 mg/kg, iv measured at 1 hr by LC-MS/MS analysis
# Type: ADME, organism-based
recorded-endpoint: concentration at 1 h (ng/mL)
Quick note: give the figure in ng/mL, leave out the unit.

-- ask Need concentration at 1 h of COC(=O)N1CC[C@H]2CC[C@@H](C(=O)N[C@@H](CCC(N)=O)C(=O)N[C@@H](Cc3ccc(F)c(F)c3)C(=O)N3CCC(CCC#Cc4cccc5c4CN(C4CCC(=O)NC4=O)C5=O)CC3)N2C(=O)[C@@H](NC(=O)c2cc3cc(C(F)(F)P(=O)(O)O)ccc3s2)C1 (stereo partly specified) , thanks.
-- reply 47300
